Values from paper PMC11992087

Target: BT4244-CBM32 (Bacteroides thetaiotaomicron)
Construct: gene BT_4244
Sequence (Q89ZX7 145-285 limits assumed): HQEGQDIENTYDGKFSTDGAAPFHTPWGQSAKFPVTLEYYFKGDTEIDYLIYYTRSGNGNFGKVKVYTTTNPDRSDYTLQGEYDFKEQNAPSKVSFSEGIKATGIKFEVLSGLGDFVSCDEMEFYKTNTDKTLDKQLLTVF
Experiment: ITC
Type: binding
Details: 20 mM Tris-HCl pH 7.5, 25 °C; single-site model
Below is a list of entries, each paired with its recorded Ka value.
observationType: Ka

molecule	targetOfAssay	obsValue
OC[C@H]1O[C@@H](O[C@H]2[C@H](O)[C@@H](O)C(O)O[C@@H]2CO)[C@H](O)[C@@H](O)[C@H]1O (stereo partly shown)	BT4244-CBM32 (Bacteroides thetaiotaomicron)	0.23 (±0.00) × 10^4
CC(=O)N[C@H]1C(O)O[C@H](CO)[C@H](O)[C@@H]1O (stereo partly shown)	BT4244-CBM32 (Bacteroides thetaiotaomicron)	0.40 (±0.03) × 10^4
CC(=O)N[C@H]1C(O)O[C@H](CO)[C@H](O)[C@@H]1O[C@@H]1O[C@H](CO)[C@H](O)[C@H](O)[C@H]1O (stereo partly shown) [core 1 disaccharide]	BT4244-CBM32 (Bacteroides thetaiotaomicron)	0.20 (±0.01) × 10^4
OC[C@H]1OC(O)[C@H](O)[C@@H](O)[C@H]1O (stereo partly shown)	BT4244-CBM32 (Bacteroides thetaiotaomicron)	0.16 (±0.01) × 10^4
